Tested on: P. berghei ANKA GFP-Luc-SMcon sporozoites
assayExplanation: P. berghei-luciferase liver stage bioluminescence assay (causal prophylactic mode) in HepG2-CD81 cells
Format: cell-based, Plasmodium berghei
conditionDescription: Plasmodium berghei; Conc. 10 μM; read-out: P. berghei sporozoites Maximum inhibition %
assayReadout: inhibition at 10 µM
Quick note: number first, unit second.

Consider the molecule shown here: C[C@H]1[C@H](N2CCN(C(=O)c3ccc(C(F)(F)F)cc3)CC2)O[C@@H]2O[C@@]3(C)CC[C@H]4[C@H](C)CC[C@@H]1[C@@]24OO3 [Compound 27] What is its recorded inhibition at 10 µM?
108%

Bench note: what inhibition at 10 µM did CO[C@H]1O[C@@H]2O[C@@]3(C)CC[C@H]4[C@H](C)CC[C@@H]([C@H]1C)[C@@]24OO3 [Artemether 3, artemether] show?
49.4%

Can you share its inhibition at 10 µM? I mean this molecule: C[C@H]1[C@H](N2CCN(C(=O)Nc3ccc(C(F)(F)F)cc3)CC2)O[C@@H]2O[C@@]3(C)CC[C@H]4[C@H](C)CC[C@@H]1[C@@]24OO3 [Compound 23]
105%

Look at this molecule and give its reported inhibition at 10 µM. C[C@H]1[C@H](N2CCN(C(=O)c3ccc(F)cc3)CC2)O[C@@H]2O[C@@]3(C)CC[C@H]4[C@H](C)CC[C@@H]1[C@@]24OO3 [Compound 28]
104%
